B1: TPR 5TU (parent)
chain: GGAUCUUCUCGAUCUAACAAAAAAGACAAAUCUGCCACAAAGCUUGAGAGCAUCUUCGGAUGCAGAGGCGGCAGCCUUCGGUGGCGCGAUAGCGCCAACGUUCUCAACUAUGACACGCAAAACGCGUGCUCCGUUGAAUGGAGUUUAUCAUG

- Variants of: B1
- assay_overview: polymerase ribozyme fitness, log enrichment relative to wild type (log ratio); higher = more active; in vitro selection for triplet polymerase activity
Variants at the floor of the assay were thinned out.
readout: polymerase ribozyme fitness (log ratio)
# output: bare number, no unit

Completed entries (count: 6):
- U55A G84A: -1.01
- C85U G94A G152C: -3.09
- C54A C105U: -0.396
- C93A A138G G143C: -3.66
- G50U G94A U102C C103U: -3.63
- U55A G86U U145G: -1.41

Q: Fill in reported polymerase ribozyme fitness (log ratio) for this entry: A28G
Result: -2.24

Q: Fill in reported polymerase ribozyme fitness (log ratio) for this entry: A17G G58A
Result: 1.26

Q: Fill in reported polymerase ribozyme fitness (log ratio) for this entry: A52U C118U U146G
Result: -3.62

Q: Fill in reported polymerase ribozyme fitness (log ratio) for this entry: A3G C85U
Result: -1.05

Q: Fill in reported polymerase ribozyme fitness (log ratio) for this entry: G25U G59A G62C C116U U145A
Result: -1.79
